Target: Pol theta (1-899) (Homo sapiens, UniProt O75417)
Construct: Pol theta (1-899) (5 nM) in assay buffer
Sequence (O75417 1-899): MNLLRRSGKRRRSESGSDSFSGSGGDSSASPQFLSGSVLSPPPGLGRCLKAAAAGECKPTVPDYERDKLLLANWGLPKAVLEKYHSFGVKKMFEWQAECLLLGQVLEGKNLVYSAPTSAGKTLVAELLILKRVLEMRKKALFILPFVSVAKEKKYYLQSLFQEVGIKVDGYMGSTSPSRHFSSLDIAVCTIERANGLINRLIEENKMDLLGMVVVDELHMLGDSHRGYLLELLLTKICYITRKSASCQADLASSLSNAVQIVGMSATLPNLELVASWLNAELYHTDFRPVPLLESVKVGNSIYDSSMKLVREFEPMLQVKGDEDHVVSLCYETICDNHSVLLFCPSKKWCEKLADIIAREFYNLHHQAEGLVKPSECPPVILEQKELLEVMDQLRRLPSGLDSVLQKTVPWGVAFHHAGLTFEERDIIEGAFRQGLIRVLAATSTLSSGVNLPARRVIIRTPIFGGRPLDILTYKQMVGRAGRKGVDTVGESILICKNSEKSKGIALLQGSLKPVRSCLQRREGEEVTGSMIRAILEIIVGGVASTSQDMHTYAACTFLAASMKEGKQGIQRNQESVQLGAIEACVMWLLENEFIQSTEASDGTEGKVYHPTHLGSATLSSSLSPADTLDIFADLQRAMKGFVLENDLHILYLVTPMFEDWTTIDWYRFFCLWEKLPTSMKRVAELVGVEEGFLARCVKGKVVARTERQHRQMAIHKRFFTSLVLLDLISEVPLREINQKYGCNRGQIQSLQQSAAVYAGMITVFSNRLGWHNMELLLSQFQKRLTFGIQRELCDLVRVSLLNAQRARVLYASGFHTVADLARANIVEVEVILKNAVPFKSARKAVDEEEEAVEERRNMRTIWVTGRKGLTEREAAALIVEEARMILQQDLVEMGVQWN
Experiment: Pol theta ATPase activity, NADH oxidation-coupled enzymatic assay (ATPase NADH coupling: Standard Screening: hPolQ)
Format: biochemical
Conditions: Table 4; Pol theta (1-899) 5 nM, ATP, dT50 ssDNA
quantity name: IC50

[[record]]
compound = "COc1nnc(NC(=O)c2cnc(C)cc2-c2c(F)cccc2OC)s1"
measured_target = "Pol theta (1-899) (Homo sapiens, UniProt O75417)"
result = "≤ 0.2 µM"

[[record]]
compound = "COc1nnc(NC(=O)c2cnc(C)cc2-c2cc(C)ncc2OC)s1"
measured_target = "Pol theta (1-899) (Homo sapiens, UniProt O75417)"
result = "≤ 0.2 µM"

[[record]]
compound = "COc1nnc(NC(=O)c2c[n+]([O-])c(C)cc2-c2cc(Cl)ncc2OC)s1"
measured_target = "Pol theta (1-899) (Homo sapiens, UniProt O75417)"
result = "0.5 to 1 µM"


Record request: IC50 value, item COc1cnc(Cl)cc1-c1cc(C)ncc1C(=O)Nc1nnc(O)s1 0.2 to 0.5 µM

Continue with COc1cnc(Cl)cc1-c1cc(C)ncc1C(=O)Nc1nnc(O[C@H]2CC[C@H](O)CC2)s1 (single isomer, unassigned) ≤ 0.2 µM

Cool, now COc1cnc(Cl)cc1-c1cc(C)ncc1C(=O)Nc1nnc(O[C@@H]2CCOC2)s1 ≤ 0.2 µM

And what about the compound COc1nnc(NC(=O)c2cnc(C)cc2-c2cc(Cl)ncc2C)s1 ? ≤ 0.2 µM

Another compound: COc1cnc(Cl)cc1-c1cc(C)ncc1C(=O)Nc1nnc(O[C@H]2CC[C@H](O)C2)s1 ≤ 0.2 µM

Please answer likewise for COc1nnc(NC(=O)c2cnc(C)cc2-c2cc(N)ncc2OC)s1 0.5 to 1 µM
